Data origin: ChEMBL document CHEMBL1123302

- STUDY TARGET: Substance-P receptor (Cavia porcellus) (UniProt P30547)
- Sequence (P30547 whole entry): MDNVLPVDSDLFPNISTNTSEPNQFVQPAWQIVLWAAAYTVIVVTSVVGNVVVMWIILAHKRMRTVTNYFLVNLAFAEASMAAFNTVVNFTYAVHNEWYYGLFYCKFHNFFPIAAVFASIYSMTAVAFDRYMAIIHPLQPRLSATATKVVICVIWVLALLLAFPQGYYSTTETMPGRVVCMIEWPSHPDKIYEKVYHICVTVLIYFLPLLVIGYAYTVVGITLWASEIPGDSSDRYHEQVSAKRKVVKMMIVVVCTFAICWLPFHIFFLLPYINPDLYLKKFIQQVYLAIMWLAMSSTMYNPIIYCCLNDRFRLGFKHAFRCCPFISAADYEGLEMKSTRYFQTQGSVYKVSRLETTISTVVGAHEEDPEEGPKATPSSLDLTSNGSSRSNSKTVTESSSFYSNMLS
- PROCEDURE TEXT: In vitro inhibition of substance P induced contractions of the guinea pig ileum at 5 uM.
- Assay type: tissue-based
OBSERVATION TYPE: Activity (dose ratio)
Give bare numbers, in dose ratio.

Reference set (2 entries):
Q: Value wanted: Activity (Substance-P receptor (Cavia porcellus) (UniProt P30547)) of entry COC(=O)[C@@H](CCSC)NC(=O)[C@H](CC(C)C)SCCNC(=O)[C@@H](Cc1ccccc1)NC(=O)[C@H](Cc1ccccc1)NC(=O)[C@H](CCC(N)=O)NC(=O)[C@H](CCC(N)=O)NC(=O)[C@H]1CCCN1C(=O)[C@H](CCCCNC(=O)OCc1ccccc1)NC(=O)[C@H]1CCCN1C(=O)[C@H](CCCN=C(N)N)NC(=O)OCc1ccccc1
Ans: 4.5

Q: Value wanted: Activity (Substance-P receptor (Cavia porcellus) (UniProt P30547)) of entry COC(=O)[C@H](CCSC)NC(=O)[C@H](CC(C)C)NC(=O)[C@@H](Cc1c[nH]c2ccccc12)NC(=O)[C@H](Cc1ccccc1)NC(=O)[C@@H](Cc1ccccc1)NC(=O)[C@H](CCCN=C(N)N)NC(=O)[C@H](CC(N)=O)NC(=O)[C@@H]1CCCN1C(=O)[C@H](CCCCNC(=O)OCc1ccccc1)NC(=O)[C@@H]1CCCN1C(=O)[C@H](CCCN=C(N)N)NC(=O)OC(C)(C)C
Ans: 2.8

Proceed to the following item.
Q: Value wanted: Activity (Substance-P receptor (Cavia porcellus) (UniProt P30547)) of entry COC(=O)[C@@H](CCSC)NC(=O)[C@H](CC(C)C)SCCNC(=O)[C@H](Cc1ccccc1)NC(=O)[C@@H](Cc1ccccc1)NC(=O)[C@H](CCCN=C(N)N)NC(=O)[C@H](CC(N)=O)NC(=O)OCc1ccccc1
Ans: 5.8
